Experiment: Long-term stability of unprocessed plasma samples at −80°C
Format: in vitro ADME
Settings: human plasma, 7 months, nominal 150 ng/mL
OBSERVED PROPERTY: Accuracy vs fresh QCs (%)

Cc1nc2c(F)cc(-c3nc(Nc4ccc(CN5CCNCC5)cn4)ncc3F)cc2n1C(C)C : 92.4
CCN1CCN(Cc2ccc(Nc3ncc(F)c(-c4cc(F)c5nc(C)n(C(C)C)c5c4)n3)nc2)CC1 : 98.9
CC(=O)c1c(C)c2cnc(Nc3ccc(N4CCNCC4)cn3)nc2n(C2CCCC2)c1=O : 85.7
CN(C)C(=O)c1cc2cnc(Nc3ccc(N4CCNCC4)cn3)nc2n1C1CCCC1 : 86.0
